Please go through the items and note down their self-splicing fitness (ln).
- protocol_summary: self-splicing fitness, log relative to wild type (ln ratio); higher = more splicing; Tetrahymena group I intron in knt gene, E. coli kanamycin selection, DiMSum; sequences stand for … in CUCUCU…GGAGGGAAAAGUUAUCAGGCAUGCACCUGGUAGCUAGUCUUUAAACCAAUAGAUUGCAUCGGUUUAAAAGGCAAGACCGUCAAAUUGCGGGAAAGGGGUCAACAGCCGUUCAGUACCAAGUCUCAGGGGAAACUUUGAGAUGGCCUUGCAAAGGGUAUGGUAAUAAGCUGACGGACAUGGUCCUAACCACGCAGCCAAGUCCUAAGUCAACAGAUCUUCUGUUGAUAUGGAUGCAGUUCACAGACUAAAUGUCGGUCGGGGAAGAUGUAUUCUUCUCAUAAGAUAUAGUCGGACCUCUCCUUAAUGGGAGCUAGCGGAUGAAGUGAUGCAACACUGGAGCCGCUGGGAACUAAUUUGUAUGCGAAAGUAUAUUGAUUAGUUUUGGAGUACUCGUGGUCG;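 note: selection with 25 µg/mL kanamycin versus none on LB agar overnight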
- setup_conditions: 37 °C
Give bare numbers.

{"residues": "CCUGAGCAAUAUUACGUGGA", "observed_value": -2.03}
{"residues": "CCUAAGCAAUAUUACGCAGC", "observed_value": -2.46}
{"residues": "CCUUAGCAAUAUUACGUUUU", "observed_value": -2.85}
{"residues": "UCUAAGCAAUAUUACGUUGA", "observed_value": -1.29}
{"residues": "CACAAGCAAUAUUACGGCAC", "observed_value": -1.56}

Give me self-splicing fitness (ln) for each of these sequences, listed below.
1. ACUUAGCAAUAUUACGGGCC
2. GAUCAGCAAUAUUACGUGCU
3. CGUUAGCAAUAUUACGACUC
4. UAUUAGCAAUAUUACGUUAC
5. UCCAAGCAAUAUUACGCAAC
6. GAGUAGCAAUAUUACGCCCG
7. AGUUAGCAAUAUUACGGGAA

1: -2.35; 2: -2.2; 3: 0.024; 4: -2.86; 5: -3.04; 6: -1.03; 7: -1.05

====

- protocol_summary: self-splicing fitness, log relative to wild type (ln ratio); higher = more splicing; Tetrahymena group I intron in knt gene, E. coli kanamycin selection, DiMSum; sequences stand for … in CUCUCU…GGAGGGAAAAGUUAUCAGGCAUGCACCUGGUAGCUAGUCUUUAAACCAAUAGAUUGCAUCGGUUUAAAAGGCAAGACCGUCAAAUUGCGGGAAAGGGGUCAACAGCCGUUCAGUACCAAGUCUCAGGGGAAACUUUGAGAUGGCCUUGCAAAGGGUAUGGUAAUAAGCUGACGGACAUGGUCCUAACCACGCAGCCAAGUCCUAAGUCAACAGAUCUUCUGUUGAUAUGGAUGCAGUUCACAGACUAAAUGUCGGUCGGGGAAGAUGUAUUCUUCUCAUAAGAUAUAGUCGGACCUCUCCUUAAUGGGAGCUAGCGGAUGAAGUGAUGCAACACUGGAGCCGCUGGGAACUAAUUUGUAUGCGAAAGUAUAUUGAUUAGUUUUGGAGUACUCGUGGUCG
- setup_conditions: 37 °C
Param threshold (-2) applies to self-splicing fitness (ln); output Met when value >= threshold, Not met when value < threshold.

Some solved entries appear below for comparison.
{"residues": "CCCUAGCAAUAUUACGGUAC", "label_value": "Not met"}
{"residues": "ACACAGCAAUAUUACGCCCG", "label_value": "Met"}
{"residues": "AGCCAGCAAUAUUACGAAUC", "label_value": "Met"}
{"residues": "UCUUAGCAAUAUUACGUGUG", "label_value": "Met"}
{"residues": "UUCAAGCAAUAUUACGAGGG", "label_value": "Met"}

Determine whether this sequence has self-splicing fitness (ln) no lower than -2: CCUCAGCAAUAUUACGACGG
Met

Determine whether this sequence has self-splicing fitness (ln) no lower than -2: AAGGAGCAAUAUUACGUAUG
Not met

Determine whether this sequence has self-splicing fitness (ln) no lower than -2: CGGGAGCAAUAUUACGGAGC
Met

Determine whether this sequence has self-splicing fitness (ln) no lower than -2: CCACAGCAAUAUUACGAUAG
Met

Determine whether this sequence has self-splicing fitness (ln) no lower than -2: UACUAGCAAUAUUACGAUCC
Not met

====

- protocol_summary: self-splicing fitness, log relative to wild type (ln ratio); higher = more splicing; Tetrahymena group I intron in knt gene, E. coli kanamycin selection, DiMSum; sequences stand for … in CUCUCU…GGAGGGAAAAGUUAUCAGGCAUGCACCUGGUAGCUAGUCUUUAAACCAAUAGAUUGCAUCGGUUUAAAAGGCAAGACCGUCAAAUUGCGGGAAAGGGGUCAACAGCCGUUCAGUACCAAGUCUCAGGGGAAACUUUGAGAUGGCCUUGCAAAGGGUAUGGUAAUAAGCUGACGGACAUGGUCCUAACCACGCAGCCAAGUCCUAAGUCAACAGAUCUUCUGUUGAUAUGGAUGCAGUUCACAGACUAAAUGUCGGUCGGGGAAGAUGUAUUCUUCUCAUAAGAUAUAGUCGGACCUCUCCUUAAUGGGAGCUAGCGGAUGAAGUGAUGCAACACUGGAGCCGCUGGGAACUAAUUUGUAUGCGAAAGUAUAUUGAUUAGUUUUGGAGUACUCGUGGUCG
- setup_conditions: 37 °C
# class assignment by measured self-splicing fitness (ln): b0 = under -2, b1 = from -2 up to -0.9, b2 = -0.9 and over

{"residues": "CUAUAGCAAUAUUACGCUCU", "label_value": "b0"}
{"residues": "UCGUAGCAAUAUUACGAGUC", "label_value": "b0"}
{"residues": "ACGAAGCAAUAUUACGCCGA", "label_value": "b2"}
{"residues": "GUGCAGCAAUAUUACGGACA", "label_value": "b2"}
{"residues": "UUUAAGCAAUAUUACGGCCG", "label_value": "b2"}
{"residues": "GGUCAGCAAUAUUACGCGGA", "label_value": "b0"}
{"residues": "CAUCAGCAAUAUUACGAUAU", "label_value": "b2"}
{"residues": "UAGCAGCAAUAUUACGGCAU", "label_value": "b2"}

Record UUCUAGCAAUAUUACGUUGC — which class?
b0

Record AGGUAGCAAUAUUACGCUUC — which class?
b0

Record AAAGAGCAAUAUUACGCCGU — which class?
b1

Record CGGCAGCAAUAUUACGCCUU — which class?
b2

Record CAAGAGCAAUAUUACGAAAG — which class?
b1

====

- protocol_summary: self-splicing fitness, log relative to wild type (ln ratio); higher = more splicing; Tetrahymena group I intron in knt gene, E. coli kanamycin selection, DiMSum; sequences stand for … in CUCUCU…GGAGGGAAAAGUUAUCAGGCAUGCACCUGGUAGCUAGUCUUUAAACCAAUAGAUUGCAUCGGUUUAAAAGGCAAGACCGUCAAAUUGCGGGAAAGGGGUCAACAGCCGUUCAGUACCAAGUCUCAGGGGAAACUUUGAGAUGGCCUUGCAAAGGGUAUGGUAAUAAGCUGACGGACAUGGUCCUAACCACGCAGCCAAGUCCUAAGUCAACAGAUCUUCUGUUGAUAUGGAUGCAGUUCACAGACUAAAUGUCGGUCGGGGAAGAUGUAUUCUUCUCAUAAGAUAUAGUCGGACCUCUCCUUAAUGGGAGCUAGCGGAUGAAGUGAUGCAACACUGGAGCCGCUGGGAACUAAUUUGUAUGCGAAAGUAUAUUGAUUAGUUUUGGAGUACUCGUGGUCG
- setup_conditions: 37 °C
Please go through the items and note down their self-splicing fitness (ln).

Recorded results for 3 sequences are shown here.
{"residues": "AUCGAGCAAUAUUACGAGGU", "self-splicing fitness (ln)": -2.93}
{"residues": "CAGAAGCAAUAUUACGCAAG", "self-splicing fitness (ln)": -1.21}
{"residues": "CAGUAGCAAUAUUACGUCUA", "self-splicing fitness (ln)": -0.256}

Give me self-splicing fitness (ln) for each of these sequences, listed below.
1. CUUGAGCAAUAUUACGUUAU
2. UAUCAGCAAUAUUACGGUCU
3. UACAAGCAAUAUUACGCCUC
4. UGCGAGCAAUAUUACGGUAG
5. UCUUAGCAAUAUUACGUGAU
6. UAUGAGCAAUAUUACGCGAC
7. UUCUAGCAAUAUUACGUAAU

1: -2.77; 2: -0.878; 3: -2.1; 4: -3.01; 5: -2.01; 6: -0.954; 7: -1.88

====

- protocol_summary: self-splicing fitness, log relative to wild type (ln ratio); higher = more splicing; Tetrahymena group I intron in knt gene, E. coli kanamycin selection, DiMSum; sequences stand for … in CUCUCU…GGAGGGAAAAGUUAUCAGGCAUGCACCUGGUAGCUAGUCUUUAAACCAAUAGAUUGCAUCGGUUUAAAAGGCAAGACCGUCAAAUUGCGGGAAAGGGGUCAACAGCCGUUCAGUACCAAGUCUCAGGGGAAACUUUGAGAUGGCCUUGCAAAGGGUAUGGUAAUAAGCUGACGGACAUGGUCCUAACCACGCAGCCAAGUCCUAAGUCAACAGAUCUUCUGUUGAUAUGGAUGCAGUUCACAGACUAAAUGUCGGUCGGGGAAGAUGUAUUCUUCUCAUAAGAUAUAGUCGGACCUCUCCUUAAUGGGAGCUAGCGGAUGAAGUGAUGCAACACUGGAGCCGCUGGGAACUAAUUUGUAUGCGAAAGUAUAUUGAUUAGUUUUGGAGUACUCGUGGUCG
- setup_conditions: 37 °C
reported_property: self-splicing fitness (ln)

Recorded results for 6 sequences are shown here.
{"residues": "GUACAGCAAUAUUACGGGAA", "observed_value": -2.24}
{"residues": "UGGUAGCAAUAUUACGAGCU", "observed_value": -1.02}
{"residues": "AAUCAGCAAUAUUACGCAUU", "observed_value": -0.498}
{"residues": "GCCUAGCAAUAUUACGCACA", "observed_value": -0.604}
{"residues": "CGCGAGCAAUAUUACGUCCA", "observed_value": -1.96}
{"residues": "CAUCAGCAAUAUUACGGGCA", "observed_value": -1.83}

Give me self-splicing fitness (ln) for each of these sequences, listed below.
1. AAGUAGCAAUAUUACGACUG
2. CUAGAGCAAUAUUACGUGUA
3. CGACAGCAAUAUUACGGAUU
4. UGGAAGCAAUAUUACGCCGU
5. UCCAAGCAAUAUUACGCGCA

1: -0.593; 2: -2.41; 3: -1.73; 4: -1.87; 5: 0.306

Look at this sequence and give its reported self-splicing fitness (ln). AAGCAGCAAUAUUACGGGAG
-3.05

Ref: the supplement of paper PMC7877785
